- Species: Rattus norvegicus
- experiment-notes: Open TG-GATES - Regimen: Single
- Format: toxicity, organism-based, Sprague-Dawley
- Set-up: regimen Single, gender Male, age 6 weeks
- stated-conditions: in vivo, po, 0 mg/kg, 6 h, tissue Plasma, route gavage, dose level Control
readout-kind: TBIL (mg/dL)
# unit: mg/dL | format: bare number

Known TBIL results, listed for orientation:
INSERT INTO measurements (compound, readout_kind, quantitative_readout) VALUES
  ('O=C(O)COc1nn(Cc2ccccc2)c2ccccc12 [BENDAZAC]', 'TBIL', 0.5),
  ('CC[C@@H](CO)NCCN[C@@H](CC)CO [ETHAMBUTOL]', 'TBIL', 0.02),
  ('CC(C)Cc1ccc(C(C)C(=O)O)cc1 (configuration not stated) [IBUPROFEN]', 'TBIL', 0.028),
  ('CC(=O)N1CCN(c2ccc(OCC3COC(Cn4ccnc4)(c4ccc(Cl)cc4Cl)O3)cc2)CC1 (configuration not stated) [KETOCONAZOLE]', 'TBIL', 0.022),
  ('CC(=O)Nc1ccc2c(c1)Cc1ccccc1-2 [2-ACETYLAMINOFLUORENE]', 'TBIL', 0.1),
  ('CC(CCc1ccccc1)NCC(O)c1ccc(O)c(C(N)=O)c1 (configuration not stated) [LABETALOL]', 'TBIL', 0.038);

Turning now to a further compound:
QUERY: Could you tell me which TBIL is on file for CCN(CC)N=O [N-NITROSODIETHYLAMINE] ?
RESULT: 0.1

---

- Species on record: Rattus norvegicus
- experiment-notes: Open TG-GATES - Regimen: Daily Repeat
- Format: toxicity, organism-based, Sprague-Dawley
- Set-up: regimen Daily Repeat, gender Male, age 6 weeks
- stated-conditions: in vivo, po, 0 mg/kg, 72 h, tissue Plasma, route gavage, dose level Control, time 3 day
readout-kind: GLC (mg/dL)
# unit: mg/dL | format: bare number

INSERT INTO results (compound, readout_kind, quantitative_readout) VALUES
  ('CC(=O)Nc1ccc2c(c1)Cc1ccccc1-2 [2-ACETYLAMINOFLUORENE]', 'GLC', 208.4),
  ('CC[C@@H](CO)NCCN[C@@H](CC)CO [ETHAMBUTOL]', 'GLC', 194.6),
  ('CC(CCc1ccccc1)NCC(O)c1ccc(O)c(C(N)=O)c1 (stereo not drawn) [LABETALOL]', 'GLC', 190.6),
  ('CC(C)Cc1ccc(C(C)C(=O)O)cc1 (stereo not drawn) [IBUPROFEN]', 'GLC', 200),
  ('O=C(O)COc1nn(Cc2ccccc2)c2ccccc12 [BENDAZAC]', 'GLC', 206.8),
  ('CC(=O)N1CCN(c2ccc(OCC3COC(Cn4ccnc4)(c4ccc(Cl)cc4Cl)O3)cc2)CC1 (stereo not drawn) [KETOCONAZOLE]', 'GLC', 184.2),
  ('CC(N)=O [ACETAMIDE]', 'GLC', 196);

QUERY: Could you tell me which GLC is on file for CCN(CC)N=O [N-NITROSODIETHYLAMINE] ?
RESULT: 200.6

---

- Species: Rattus norvegicus
- experiment-notes: Open TG-GATES - Regimen: Daily Repeat
- Format: toxicity, organism-based, Sprague-Dawley
- Design: regimen Daily Repeat, gender Male, age 6 weeks
- stated-conditions: in vivo, po, 0 mg/kg, […], tissue Plasma, route gavage, dose level Control, time 7 day
readout-kind: ALT (IU/L)
# unit: IU/L | format: bare number

INSERT INTO assay_data (molecule, readout_kind, quantitative_readout) VALUES
  ('CC[C@@H](CO)NCCN[C@@H](CC)CO [ETHAMBUTOL]', 'ALT', 43),
  ('CCN(CC)N=O [N-NITROSODIETHYLAMINE]', 'ALT', 32.2),
  ('CC(CCc1ccccc1)NCC(O)c1ccc(O)c(C(N)=O)c1 (configuration not stated) [LABETALOL]', 'ALT', 43.4),
  ('CC(C)Cc1ccc(C(C)C(=O)O)cc1 (configuration not stated) [IBUPROFEN]', 'ALT', 46.8),
  ('CC(=O)Nc1ccc2c(c1)Cc1ccccc1-2 [2-ACETYLAMINOFLUORENE]', 'ALT', 35.8),
  ('O=C(O)COc1nn(Cc2ccccc2)c2ccccc12 [BENDAZAC]', 'ALT', 30);

Turning now to a further molecule:
QUERY: Could you tell me which ALT is on file for CC(N)=O [ACETAMIDE] ?
RESULT: 38.2

From: ChEMBL document CHEMBL3885861
